Consider the following molecules and their measured Tm readings.
- procedureSummary: Thermal stability (Protein Thermal Shift assay)
- Type: physicochemical
- conditionDescription: VHH domains, first derivative analysis
Provide the reading as a plain figure in °C.

Some solved cases for reference:
H09: ALPP targeting VHH domain, SEQ ID NO: 39 (protein) VHH: QVQLVESGGGSVQTGGSLRLSCAASGPSLSNYAMGWFRQAPGKEREFVAGISWGGGRTNYLDSVKGRFTISRDNAKNTMYLQMNSLKPEDTAVYYCAGRYGRGRDVEYEYDYWGQGTQVTVSS = 68.8
D10: ALPP targeting VHH domain, SEQ ID NO: 28 (protein) VHH: QVQLVESGGGLVQPGGSLRLSCAASGSIFSVNTMGWYRQAPGKQRDLVAVATSGGTIHYADSVKGRFTISRDNAKNTVYLQMNSLKPEDTAVYYCNLVVPYGMIAGDHDYWGQGTKVTVSS = 69.9

Kindly consider the entry below.
Consider the molecule E10: ALPP/ALPPL2 targeting VHH domain, SEQ ID NO: 31 (protein) VHH: QVQLVESGGGLVQAGGSLRLSCAVSGRALSDYNIGWFRQAPGKEREFVARKTWDGSSTRYDDSVKGRFTVSIEDAKNTAYLQMSSLKTEDTAVYYCAAGRYSRARGWEYDYWGQGTQVTVSS and give its measured Tm. 71.8
